Measured values drawn from paper PMC6177136 for this set.

Tested on: MM487
ASSAY REMARKS: Cytotoxicity assay, primary mesothelioma MM487
Type: cell-based, Human
EXPERIMENTAL PARAMETERS: biphasic, 72 h, SBR assay; read-out: IC50 ± SD MM487
ASSAY ENDPOINT: IC50 (nM)
Numeric only. Scale: nM

## Input Read off the recorded IC50 for N.N.[Cl][Pt][Cl] [Cisplatin]
## Output 3000

###

System: JECO-1
ASSAY REMARKS: Cytotoxicity assay (MTT, 72 h) JECO-1
Format: cell-based, Human
EXPERIMENTAL PARAMETERS: Homo sapiens; 72 h, MTT assay; read-out: IC50 ± SD JECO-1
ASSAY ENDPOINT: pIC50
pIC50 (log units): -log10 of the concentration in mol/L.

## Input Find the measured pIC50 of `CC[C@@]1(O)C(=O)OCc2c1cc1n(c2=O)Cc2c-1nc1ccc(O)cc1c2C=NOCCCCCC(=O)NO` and report it.
## Output 7.64

###

We begin with a simple list: items and their reported pIC50.
TESTED ON: HDAC10 (Homo sapiens, UniProt Q969S8)
Sequence (Q969S8 whole entry): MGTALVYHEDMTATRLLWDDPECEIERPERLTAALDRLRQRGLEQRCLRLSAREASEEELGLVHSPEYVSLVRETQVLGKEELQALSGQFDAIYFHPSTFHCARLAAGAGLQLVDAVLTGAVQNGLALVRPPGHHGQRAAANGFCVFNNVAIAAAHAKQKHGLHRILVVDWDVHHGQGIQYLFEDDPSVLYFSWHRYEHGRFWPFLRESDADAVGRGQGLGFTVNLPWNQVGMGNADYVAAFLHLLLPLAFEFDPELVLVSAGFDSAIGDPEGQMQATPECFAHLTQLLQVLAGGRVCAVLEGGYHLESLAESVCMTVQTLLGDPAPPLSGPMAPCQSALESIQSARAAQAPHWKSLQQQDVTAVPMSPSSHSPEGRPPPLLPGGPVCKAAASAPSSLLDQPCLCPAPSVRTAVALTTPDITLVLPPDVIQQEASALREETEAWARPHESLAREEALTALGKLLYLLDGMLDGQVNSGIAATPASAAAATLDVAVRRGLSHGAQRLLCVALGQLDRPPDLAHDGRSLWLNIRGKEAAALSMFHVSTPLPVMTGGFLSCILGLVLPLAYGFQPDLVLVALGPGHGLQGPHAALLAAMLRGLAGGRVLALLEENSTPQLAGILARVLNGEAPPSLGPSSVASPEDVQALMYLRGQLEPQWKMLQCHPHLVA
ASSAY REMARKS: HDAC profiling HDAC10
EXPERIMENTAL PARAMETERS: purified isoform, 10 concentrations from 10 μM, triplicate
Note on pIC50: it is the negative log10 of concentration, concentration in mol/L.

- COMPOUND: "CC[C@@]1(O)C(=O)OCc2c1cc1n(c2=O)Cc2c-1nc1ccc(O)cc1c2C=NOCCCCCC(=O)NO [Compound 3d]"
  pIC50: 6.65

Turning to the following compound.
## Input State its pIC50 for this compound: CC[C@@]1(O)C(=O)OCc2c1cc1n(c2=O)Cc2c-1nc1ccccc1c2C=NOCCCCCC(=O)NO [Compound 3b]
## Output 7.00

###

System: JECO-1
ASSAY REMARKS: Cytotoxicity assay (MTT, 72 h) JECO-1
Format: cell-based, Human
EXPERIMENTAL PARAMETERS: 72 h, MTT assay; read-out: IC50 ± SD JECO-1
ASSAY ENDPOINT: pIC50
Remember the convention: pIC50 equals -log10 of concentration in molar.

## Input Please look at this compound and report its pIC50: CCc1c2c(nc3ccc(OCCCCCCC(=O)NO)cc13)-c1cc3c(c(=O)n1C2)COC(=O)[C@]3(O)CC [CY700]
## Output 6.00

###

TESTED ON: HDAC1 (Homo sapiens, UniProt Q13547)
Sequence (Q13547 whole entry): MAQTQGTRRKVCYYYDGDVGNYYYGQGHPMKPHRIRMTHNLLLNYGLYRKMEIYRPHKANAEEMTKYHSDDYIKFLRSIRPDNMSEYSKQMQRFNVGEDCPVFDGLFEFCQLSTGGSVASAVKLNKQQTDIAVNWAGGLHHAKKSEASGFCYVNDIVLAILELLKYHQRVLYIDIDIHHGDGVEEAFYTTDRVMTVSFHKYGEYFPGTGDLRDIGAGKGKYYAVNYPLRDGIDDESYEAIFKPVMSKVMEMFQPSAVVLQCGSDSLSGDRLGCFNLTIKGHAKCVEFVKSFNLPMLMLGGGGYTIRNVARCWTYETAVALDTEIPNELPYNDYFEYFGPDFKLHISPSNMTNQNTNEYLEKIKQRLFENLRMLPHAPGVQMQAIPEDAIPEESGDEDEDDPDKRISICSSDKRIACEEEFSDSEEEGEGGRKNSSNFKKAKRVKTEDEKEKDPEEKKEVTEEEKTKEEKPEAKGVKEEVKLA
ASSAY REMARKS: HDAC profiling HDAC1
EXPERIMENTAL PARAMETERS: purified isoform, 10 concentrations from 10 μM, triplicate
ASSAY ENDPOINT: IC50 (nM)
Output spec: scalar in nM, unitless text.

## Input Name the recorded IC50 of the compound listed here: `CC[C@@]1(O)C(=O)OCc2c1cc1n(c2=O)Cc2c-1nc1ccccc1c2C=NOCCCCCC(=O)NO`
## Output 43

###

Test system: HeLa
ASSAY REMARKS: Cytotoxicity assay (SRB, 72 h) HeLa
Type: cell-based, Human
EXPERIMENTAL PARAMETERS: read-out: IC50 ± SD HeLa
ASSAY ENDPOINT: pIC50
// pIC50: -log10(molar conc.)

## Input Kindly indicate its recorded pIC50. Item: `CCc1c2c(nc3ccc(OCCCCCCC(=O)NO)cc13)-c1cc3c(c(=O)n1C2)COC(=O)[C@]3(O)CC`
## Output 5.48

###

Test system: series of human tumor cell lines
ASSAY REMARKS: Antiproliferative activity, series of human tumor cell lines (summary)
Assay type: cell-based
EXPERIMENTAL PARAMETERS: span over the cell line panel, 72 h, SRB assay, read-out: IC50 across the human tumor cell lines of Table 3
pIC50: −log10 of the molar value.
// reported pIC50 for each item listed

- MOLECULE: "CC[C@@]1(O)C(=O)OCc2c1cc1n(c2=O)Cc2c-1nc1ccc(O)cc1c2C=NOCCCCCC(=O)NO [Compound 3d]"
  pIC50: "6.40 to 7.52"

## Input Provide measured pIC50 on series of human tumor cell lines for CCc1c2c(nc3ccc(OC(=O)N4CCC(N5CCCCC5)CC4)cc13)-c1cc3c(c(=O)n1C2)COC(=O)[C@]3(O)CC [Irinotecan] please.
## Output < 5.82

###

System: RAJI
ASSAY REMARKS: Cytotoxicity assay (MTT, 72 h) RAJI
Type: cell-based
EXPERIMENTAL PARAMETERS: Homo sapiens, read-out: IC50 ± SD RAJI
ASSAY ENDPOINT: pIC50
Just the number, please; pIC50 means minus log10 of the concentration in mol/L.

## Input Given the molecule `CC[C@@]1(O)C(=O)OCc2c1cc1n(c2=O)Cc2c-1nc1ccc(O)cc1c2C=NOCCCCCC(=O)NO` , write its reported pIC50.
## Output 7.11

###

Test system: MINO
ASSAY REMARKS: Cytotoxicity assay (MTT, 72 h) MINO
Assay type: cell-based, Human
EXPERIMENTAL PARAMETERS: 72 h, MTT assay; read-out: IC50 ± SD MINO
ASSAY ENDPOINT: IC50 (nM)
Note: unit nM is implicit; provide only the numeric part.

## Input Please report IC50 for the following molecule: `CCc1c2c(nc3ccc(OCCCCCCC(=O)NO)cc13)-c1cc3c(c(=O)n1C2)COC(=O)[C@]3(O)CC`
## Output 370

###

Test system: U937
ASSAY REMARKS: Cytotoxicity assay (MTT, 72 h) U937
Type: cell-based
EXPERIMENTAL PARAMETERS: Homo sapiens, U-937, read-out: IC50 ± SD U937
ASSAY ENDPOINT: IC50 (nM)
Number in nM, nothing else.

## Input For the molecule `CC[C@@]1(O)C(=O)OCc2c1cc1n(c2=O)Cc2c-1nc1ccc(O)cc1c2C=NOCCCCCC(=O)NO` , give its reported IC50.
## Output 180

###

System: REC-1
ASSAY REMARKS: Cytotoxicity assay (MTT, 72 h) REC-1
Format: cell-based
EXPERIMENTAL PARAMETERS: Homo sapiens, Rec1, read-out: IC50 ± SD REC-1
ASSAY ENDPOINT: pIC50
Note: pIC50 values are expressed as the negative base-10 logarithm of concentration in M.

## Input Specify pIC50 for `CC[C@@]1(O)C(=O)OCc2c1cc1n(c2=O)Cc2c-1nc1ccc(O)cc1c2C=NOCCCCCC(=O)NO` and stop.
## Output 6.74

###

System: Jurkat-cp
ASSAY REMARKS: Cytotoxicity assay (MTT, 72 h) Jurkat-cp
Type: cell-based
EXPERIMENTAL PARAMETERS: Homo sapiens, read-out: IC50 ± SD Jurkat-cp
ASSAY ENDPOINT: pIC50
Remember, pIC50 is on a log scale: it is -log10 of the molar concentration.

## Input Provide only the value of recorded pIC50 for `CC[C@@]1(O)C(=O)OCc2c1cc1n(c2=O)Cc2c-1nc1ccc(O)cc1c2C=NOCCCCCC(=O)NO`
## Output 6.64

###

Test system: HepG2
ASSAY REMARKS: Cytotoxicity assay (SRB, 72 h) HepG2
Format: cell-based, Human
EXPERIMENTAL PARAMETERS: read-out: IC50 ± SD HepG2
ASSAY ENDPOINT: IC50 (nM)
Give the quantity in nM, number only.

## Input Answer with the recorded IC50 for the compound listed here: CCc1c2c(nc3ccc(OCCCCCCC(=O)NO)cc13)-c1cc3c(c(=O)n1C2)COC(=O)[C@]3(O)CC [CY700]
## Output 1500
